Just for reference, PubChem BioAssay (NCI) is where these values come from.

System: HT29 colon
protocol: NCI tumour cell line growth inhibition, 48 h
value-type: TGI

// below: answered compounds
CN(C)c1c([O-])c(=[N+](C)C)c1=O :: > 100 µM
COc1ccncc1C#Cc1cncc(C(=O)Nc2ccc(CN3CCN(C)CC3)c(C(F)(F)F)c2)c1 :: > 100 µM
O=C(O)CSc1n[nH]c(-c2ccccc2)n1 :: > 100 µM
COC(=O)CN(C)P(=O)(N1CC1)N1CC1 :: > 100 µM
CC1C[C@]2(C)C(=O)Nc3ccccc3[C@@H]2Nc2ccccc21 (some centres undefined) :: 30 µM

Please state, for each entry, its recorded TGI.
1. O=C(c1cc(Cl)cc(Cl)c1)N1CCN(C(=O)c2cc(Cl)cc(Cl)c2)C1=S
2. CCOc1ccc2nc(S/C(=C/C=C(C#N)C#N)c3ccc(C)cc3)sc2c1
3. O=C1C[C@H]2[C@@H](O1)[C@@H](O)CN1C(=O)c3ccccc3[C@H]21
4. CCOC(=O)NC(=O)c1cn(CCOC(=O)NCCCCCCNC(=O)OCCn2cc(C(=O)NC(=O)OCC)c(=O)[nH]c2=O)c(=O)[nH]c1=O
5. CCOC(=O)C(C)(C)Oc1ccc2c(C)c(-c3ccc(Cl)cc3)c(=O)oc2c1
6. COC12C=C/C(=C(/C(=O)OCc3ccncc3)C(=O)CCCCCCCCC3(OC)C=C/C(=C(/C(=O)OCc4ccncc4)C(=O)CCCCCCCC1)O3)O2
7. COc1cccc2c1C(=O)c1c(O)c3c(c(O)c1C2=O)CC(O)(/C(C)=N/NC(=O)CCC(=O)N/N=C(\C)C1(O)Cc2c(O)c4c(c(O)c2C(OC2CC(N)C(O)C(C)O2)C1)C(=O)c1c(OC)cccc1C4=O)CC3OC1CC(N)C(O)C(C)O1 (centres undefined)
8. O=C(NCCCCN=c1cccccc1NCCCCNC(=O)OCc1ccccc1)OCc1ccccc1

1: 51.9 µM; 2: > 100 µM; 3: > 100 µM; 4: > 100 µM; 5: 62.7 µM; 6: 4.79 µM; 7: > 10.5 µM; 8: 18.7 µM

Please state, for each entry, its recorded TGI.
1. N#Cc1c(-c2ccc(F)cc2)c(-c2ccc(F)cc2)nn(CCO)c1=O
2. Cc1ccc(NC(=O)C2C(=O)N(c3ccc(C)c(C)c3)C(=O)C2N=N)cc1C (centres undefined)
3. Cc1cn2c(/C=C3\C(=O)Nc4ccc(O)cc43)c(-c3ccc(Cl)cc3)nc2s1
4. Cc1ccc(C(=O)N/N=C(\N=Nc2ccccc2[N+](=O)[O-])c2ccc(N(C)C)cc2)cc1
5. O=C(O)[C@H](NS(=O)(=O)c1ccc2ccccc2c1)c1ccccc1

1: > 22.9 µM; 2: > 100 µM; 3: 56.2 µM; 4: > 100 µM; 5: > 100 µM

Fill blank: measured TGI of the compound "CCOC(=O)c1ccc(C(=O)/C(C#N)=C2\CCCN2C)[nH]1" is ____.
> 100 µM

* * *

Tested on: NCI-H460 lung
protocol: NCI tumour cell line growth inhibition, 48 h
value-type: log10(TGI) (log10 of the value in µM)
The common logarithm of TGI in µM is what is listed.

COc1ccc(-c2nc(SCC(=O)N/N=C/c3ccc(O)c(OC)c3)[nH]c2-c2ccc(OC)cc2)cc1 :: 1.88
COC(=O)C1C=CN(N(C)C)C2=C1C(=O)c1c(O)cccc1C2=O (stereo unspecified) :: 0.48
CCOC(=O)C(=Cc1cccc(Cl)c1)C(=O)OCC :: 1.10
CC1(C)OC(=C(C#N)C#N)C(C#N)=C1/C=C/c1ccncc1 :: 1.35

Fill blank: measured log10(TGI) of the molecule O=C(NC(CO)Cc1ccc(Oc2cc(CC(CO)NC(=O)OCc3ccccc3)ccc2OC(=O)OCc2ccccc2)cc1)OCc1ccccc1 (stereo unspecified) is ____.
1.59

* * *

Tested on: SW-620 colon
protocol: NCI tumour cell line growth inhibition, 48 h; in the data active means GI50 below about 0.43 µM; inactive means the rest
Thanks in advance; please answer with one of these: Yes (active), No (inactive)

Which outcome did this test record for the molecule "C[C@H]1[C@H](C)CC[C@]2(C(=O)OCCOCCOCC[P+](c3ccccc3)(c3ccccc3)c3ccccc3)CC[C@]3(C)C(=CC[C@@H]4[C@@]5(C)CC[C@H](OC(=O)C(Cl)Cl)C(C)(C)[C@@H]5CC[C@]43C)[C@H]12" ?
Yes

Which outcome did this test record for the molecule "CCCCCCC[CH2][Sn]1([CH2]CCCCCCC)[O]C(=O)c2cccnc2[S]1" ?
No

Which outcome did this test record for the molecule "COc1ccc2[nH]cc(-c3nc(-c4c[nH]c5ncccc45)cs3)c2c1" ?
No

Which outcome did this test record for the molecule "CCN(CC)c1nc(-c2ccc(Cl)cc2Cl)nc2ccccc12" ?
No

* * *

System: MALME-3M melanoma
protocol: NCI tumour cell line growth inhibition, 48 h
Entry flag: YES if TGI reaches 30 µM; NO if it does not.

Use these answered entries as a reference point.
C=CCCCCCCCCCCC1(O)C=CC2=[N+](CCCCCN=C(N)N)CCCN21 (configuration not stated) :: NO
Cc1cc(C)nc(NS(=O)(=O)c2ccc(NNC(=O)c3cccc4c(=O)c5ccccc5[nH]c34)cc2)n1 :: YES
CCOC(=O)C(C)(C)Oc1ccc2c(C)c(-c3ccc(Cl)cc3)c(=O)oc2c1 :: YES

TGI >= 30 µM for "C[C@H]1Oc2cc(cnc2N)-c2c(nn(C)c2C#N)CN(C)C(=O)c2ccc(F)cc21" ?
YES

TGI >= 30 µM for COc1ccc(C(OCC2OC(n3cc(C)c(=O)[nH]c3=O)CC2n2cc(Cn3cc(Br)c(=O)[nH]c3=O)nn2)(c2ccccc2)c2ccccc2)cc1 (configuration not stated) ?
YES

TGI >= 30 µM for "C=CCc1cccc(/C=N/NC(=O)CN2CCN(Cc3ccccc3)CC2)c1O" ?
NO

* * *

Test system: SK-MEL-5 melanoma
protocol: NCI tumour cell line growth inhibition, 48 h
value-type: TGI

CC[C@@]12N=C(N(C)C)C[C@]1(O)ON=C2C :: > 100 µM
CC(=O)OC12c3ccccc3-c3ccccc3C1C1C(=O)N(C)C(=O)C12Cl (configuration not stated) :: > 10 µM
CC(=O)Nc1ccc2cc(C)c(=O)[nH]c2n1 :: > 100 µM
O=[N+]([O-])c1ccc(S(=O)(=O)N=Ic2ccccc2)cc1 :: > 100 µM
Cn1cc(C2=C(c3cn(C)c4cc(C(N)=O)ccc34)C(=O)NC2=O)c2ccccc21 :: 3.39 µM
COC(=O)C1C=CN(N(C)C)C2=C1C(=O)c1c(O)cccc1C2=O (configuration not stated) :: 1.77 µM
CCOC(=O)C(C)(C)Oc1ccc2c(C)c(-c3ccc(Cl)cc3)c(=O)oc2c1 :: 35 µM
O=c1n(-c2ccccc2)c(=O)n2n1C1C=CC2C2C(C1)C2(Cl)Cl (configuration not stated) :: > 100 µM

Please state, for each entry, its recorded TGI.
1. COC1[C@@H](OC(C)=O)[C@@H](NC(=O)C(Cl)(Cl)Cl)C(I)[C@@H](N2C(=O)c3ccccc3C2=O)[C@H]1OC (some centres not stated)
2. COc1ccc(-c2c(C#N)c(O)n(NS(=O)(=O)c3ccc(C)cc3)c(=O)c2C#N)cc1
3. COc1ccc(C(=O)/C=C/c2ccncc2)cc1OC
4. Cc1ccc(-c2cc(-c3ccc(Cl)cc3)nc(/N=C3\C(=O)N(CN4CCOCC4)c4ccc(Cl)cc43)n2)cc1
5. CCN(CC)C(=S)SS(=O)(=O)c1ccc(F)cc1

1. > 100 µM
2. > 100 µM
3. 30.7 µM
4. 38.4 µM
5. > 100 µM

Please state, for each entry, its recorded TGI.
1. CC(=O)O[C@H]1CCC2[C@@H]3CCC4=C(O)c5nocc5C[C@]4(C)C3CC[C@@]21C (some centres not stated)
2. Oc1cc(O)c2c(c1)OC(c1ccc(O)c(O)c1)C(OC1(c3cc(O)c(O)c(O)c3)Oc3cc(O)cc(O)c3C(O)C1O)C2 (configuration not stated)
3. C1CSCCSCCS1
4. COC1C(O)=C2C(=O)O/C(C)=C/C=C/C=C/C=C\CC(c3ccccc3)NC(=O)\C=C/C=C\C=C\C=C\[C@@]2(C)[C@@H]1O (some centres not stated)
5. CC(NNC(=O)CC(=O)N(C(=O)c1ccccc1)c1ccc(Cl)cc1)c1cc2ccccc2oc1=O (configuration not stated)

> 100 µM
34 µM
> 100 µM
0.199 µM
> 10 µM

* * *

System: HCC-2998 colon
protocol: NCI tumour cell line growth inhibition, 48 h
Provide the reported TGI of each item.

// below: answered compounds
Cn1cnc([N+](=O)[O-])c1S(=O)(=O)Oc1ccccc1 :: 40.7 µM
O=C1NC(=S)NNC12c1ccccc1-c1ccccc12 :: > 10 µM
COC(=O)[C@]1(C)CCCC2(C)C1CC[C@H]1C=C(C)[C@H]3CCC12C3 (stereo partly specified) :: > 100 µM

Please state, for each entry, its recorded TGI.
1. NCCCNCCCCNCCCN
2. CC12CC(C#N)(C#N)C(C#N)(CO1)C(=N)O2 (stereo unspecified)
3. CCOC(=O)c1ccc(C(=O)/C(C#N)=C2\CCCN2C)[nH]1
4. CC(CCC#N)(CCC#N)C(=O)CC(O)(C(F)(F)F)C(F)(F)F
5. CCN(CC)C(=S)SS(=O)(=O)c1ccc(F)cc1
6. Nc1nccc2c1ccn2-c1ccc(NC(=O)c2ccc(N3CCOCC3)c(C(F)(F)F)c2)cc1

1: > 76.7 µM; 2: > 100 µM; 3: > 100 µM; 4: 31.3 µM; 5: > 100 µM; 6: 29.1 µM

Please state, for each entry, its recorded TGI.
1. CCO/C=N/NC(=O)CSc1nc2ccc(I)cc2c(=O)n1Cc1ccccc1
2. O=C(c1cc(Cl)cc(Cl)c1)N1CCN(C(=O)c2cc(Cl)cc(Cl)c2)C1=S

> 100 µM
31 µM
